target: RBM39 and the DCAF15 complex (RBM39-Flag / His-DCAF15-DDA1-DDB1) (Homo sapiens (Human), UniProt Q14498+Q66K64); test: DCAF15 RBM39 complex formation TR-FRET assay; conditions: RBM39(R150-D331) 3xFlag 50 nM, His-DCAF15-DDA1-DDB1 10 nM, 60 min room temperature
Simple rule here: EC50 less than 800 nM is class 1, otherwise class 0.

Task item: Problem: For the compound O=S(=O)(Nc1cc(F)cc2c(Cl)c[nH]c12)c1nc(C(F)(F)F)cs1 , is EC50 under 800 nM?
Reply: class 0

Task item: In the record for Cc1ccc(NS(=O)(=O)c2nc(CCO)cs2)c2[nH]cc(C#N)c12 , is EC50 less than 800 nM?
Reply: class 1

Task item: Is it true that EC50 reported for CC(C)(C)c1cc(S(=O)(=O)Nc2cccc3c(C#N)c[nH]c23)on1 is less than 800 nM?
Reply: class 1

Task item: A record lists N#Cc1c[nH]c2c(NS(=O)(=O)c3csc(C(F)F)n3)cccc12 . Is its EC50 below 800 nM?
Reply: class 1

* * *

Recorded log10(EC50), one value per entry.
molecular target: RBM39 and the DCAF15 complex (RBM39-Flag / His-DCAF15-DDA1-DDB1) (Homo sapiens (Human), UniProt Q14498+Q66K64); test: DCAF15 RBM39 complex formation TR-FRET assay; conditions: RBM39(R150-D331) 3xFlag 50 nM, His-DCAF15-DDA1-DDB1 10 nM, 60 min room temperature
Record value = log10 of EC50 given in nM.

See these solved cases before continuing.
entry_smiles | test_result
N#Cc1c[nH]c2c(NS(=O)(=O)c3cscn3)cccc12 | 3.54
O=S(=O)(Nc1cccc2c(Cl)c[nH]c12)c1nc(C(F)(F)F)cs1 | 2.54

So for Cc1ncc(S(=O)(=O)Nc2cccc3c(C#N)c[nH]c23)s1 , the logged log10(EC50) turned out to be 2.21

The recorded log10(EC50) for N#Cc1c[nH]c2c(NS(=O)(=O)c3cnc(Cl)s3)cccc12 is 2.71

* * *

target: RBM39 and the DCAF15 complex (RBM39-Flag / His-DCAF15-DDA1-DDB1) (Homo sapiens (Human), UniProt Q14498+Q66K64); experiment: DCAF15 RBM39 complex formation TR-FRET assay; settings: RBM39(R150-D331) 3xFlag 50 nM, His-DCAF15-DDA1-DDB1 10 nM, 60 min room temperature
pEC50: −log10 of the molar value.
Label satisfied for high-side pEC50 (at or above 6) and not satisfied for low-side pEC50 (below it).

Observe how each entry below is paired with its result.
molecule | cat
Cc1ccc(NS(=O)(=O)c2nc(C(=O)O)cs2)c2[nH]cc(C#N)c12 | not satisfied
CCN(CC)C(=O)c1csc(S(=O)(=O)Nc2ccc(C)c3c(C#N)c[nH]c23)n1 [Compound 128] | satisfied
Cc1ccc(NS(=O)(=O)c2ncc(C(=O)N3CCN(C)CC3)s2)c2[nH]cc(C#N)c12 | not satisfied
CCc1nc(S(=O)(=O)Nc2ccc(F)c3c(Cl)c[nH]c23)c[nH]1 | satisfied
Cc1nocc1S(=O)(=O)Nc1ccc(C)c2c(C#N)c[nH]c12 | not satisfied

Task item: // inclusive: pEC50 at least 6? input: Cc1ccc(NS(=O)(=O)c2cnc(Br)s2)c2[nH]cc(C#N)c12
Reply: satisfied

Task item: Is reported pEC50 greater than or equal to 6 here: Cc1ccc(NS(=O)(=O)c2cc(C(C)(C)C)no2)c2[nH]cc(C#N)c12
Reply: satisfied

Task item: Has Cc1ccc(NS(=O)(=O)c2nc(C(=O)N3CCC(O)C3)cs2)c2[nH]cc(C#N)c12 (stereo not drawn) a recorded pEC50 greater than or equal to 6?
Reply: not satisfied

Task item: Given the entry Cc1ncc(S(=O)(=O)Nc2cccc3c(Cl)c[nH]c23)s1 , answer whether its pEC50 meets or surpasses 6.
Reply: satisfied

* * *

Biological target: RBM39 and the DCAF15 complex (RBM39-Flag / His-DCAF15-DDA1-DDB1) (Homo sapiens (Human), UniProt Q14498+Q66K64)
Test: DCAF15 RBM39 complex formation TR-FRET assay
Settings: RBM39(R150-D331) 3xFlag 50 nM, His-DCAF15-DDA1-DDB1 10 nM, 60 min room temperature
Procedure: A TR-FRET assay was used to assess the effect of compounds disclosed herein on the interaction between RBM39 and the DCAF15 complex. Test compounds were dissolved to form a 10 mM DMSO stock solution. […] A 30 nL aliquot of the diluted compound was transferred to a 384 well plate, which was incubated at room temperature for 15 minutes. […] The plates were incubated at room temperature for 60 minutes, and then read. […]
Entries and their measured pEC50 follow.
# pEC50 = -log10(concentration in molar units)

compound | observed_property | test_result
N#Cc1c[nH]c2c(NS(=O)(=O)c3nccs3)cc(F)cc12 [Compound 132] | pEC50 | 5.18
Cc1ccc(NS(=O)(=O)c2cnc(C(F)(F)F)s2)c2[nH]cc(C#N)c12 [Compound 24] | pEC50 | 6.57
N#Cc1c[nH]c2c(NS(=O)(=O)c3ncc(Cl)s3)cccc12 [Compound 116] | pEC50 | 5.67
Cc1ncc(S(=O)(=O)Nc2ccc(F)c3c(C#N)c[nH]c23)s1 [Compound 201] | pEC50 | 6.41

Form: compound = Cc1ccc(NS(=O)(=O)c2ncc(-c3ccncc3)s2)c2[nH]cc(C#N)c12 [Compound 36] ; pEC50 = 6.45

Entry N#Cc1c[nH]c2c(NS(=O)(=O)c3nc(C(F)(F)F)cs3)ccc(F)c12 [Compound 148] — recorded pEC50 = 5.88

The recorded pEC50 for Cc1ncc(S(=O)(=O)Nc2ccc(C)c3c(C#N)c[nH]c23)o1 [Compound 98] is 6.71

* * *

molecular target: RBM39 and the DCAF15 complex (RBM39-Flag / His-DCAF15-DDA1-DDB1) (Homo sapiens (Human), UniProt Q14498+Q66K64); experiment: DCAF15 RBM39 complex formation TR-FRET assay; conditions: RBM39(R150-D331) 3xFlag 50 nM, His-DCAF15-DDA1-DDB1 10 nM, 60 min room temperature
Below is a list of entries, each paired with its recorded pEC50 value.
Remember the convention: pEC50 equals -log10 of concentration in molar.

Worked cases, answers included:
molecule | observed_property | test_result
Cc1ccc(NS(=O)(=O)c2nc(C(=O)N(C)C)cs2)c2[nH]cc(C#N)c12 [Compound 59] | pEC50 | 6.10
Cc1ccc(NS(=O)(=O)c2nc(C(=O)N3CCNCC3)cs2)c2[nH]cc(C#N)c12 [Compound 78] | pEC50 | 5.49
Cc1ccc(NS(=O)(=O)c2cnc(C(C)(C)C)o2)c2[nH]cc(C#N)c12 [Compound 100] | pEC50 | 6.44

Quick note, pEC50 for N#Cc1c[nH]c2c(NS(=O)(=O)c3nc(C(F)(F)F)cs3)cccc12 [Compound 134] landed at 5.75

// pEC50 value for Cc1ccc(NS(=O)(=O)c2nc(C(=O)N3CCN(C)CC3)cs2)c2[nH]cc(C#N)c12 [Compound 79] : 5.01

// field: pEC50; key: Cc1ccc(NS(=O)(=O)c2ncc(-c3cocn3)s2)c2[nH]cc(C#N)c12 [Compound 71] ; value = 6.27

* * *

Target: RBM39 and the DCAF15 complex (RBM39-Flag / His-DCAF15-DDA1-DDB1) (Homo sapiens (Human), UniProt Q14498+Q66K64)
Test: DCAF15 RBM39 complex formation TR-FRET assay
Details: RBM39(R150-D331) 3xFlag 50 nM, His-DCAF15-DDA1-DDB1 10 nM, 60 min room temperature
Experimental: A TR-FRET assay was used to assess the effect of compounds disclosed herein on the interaction between RBM39 and the DCAF15 complex. Test compounds were dissolved to form a 10 mM DMSO stock solution. […] A 30 nL aliquot of the diluted compound was transferred to a 384 well plate, which was incubated at room temperature for 15 minutes. […] The plates were incubated at room temperature for 60 minutes, and then read. […]
# EC50 annotations
Please state the figure in nM; there is no need to write the unit.

Below: 3 molecules and their reported EC50.
entry_smiles | units_of_measure | test_result
Cc1ccc(NS(=O)(=O)c2cnc(Cl)s2)c2[nH]cc(C#N)c12 | nM | 106
N#Cc1c[nH]c2c(NS(=O)(=O)c3nc(Cl)cs3)ccc(F)c12 | nM | 893
N#Cc1c[nH]c2c(NS(=O)(=O)c3nc(C(F)(F)F)cs3)cc(F)cc12 | nM | 1250

The molecule listed as N#Cc1c[nH]c2c(NS(=O)(=O)c3cnns3)cccc12 has a reported EC50 of 1160

Reported EC50 ( CC(C)(C)c1ncc(S(=O)(=O)Nc2cccc3c(C#N)c[nH]c23)o1 ) = 729
